- system.name: T1, human IL-17A (construct not specified) (human, UniProt Q16552 24-155, limits assumed)
- T1 construct: also called huIL-17A
- T1 sequence: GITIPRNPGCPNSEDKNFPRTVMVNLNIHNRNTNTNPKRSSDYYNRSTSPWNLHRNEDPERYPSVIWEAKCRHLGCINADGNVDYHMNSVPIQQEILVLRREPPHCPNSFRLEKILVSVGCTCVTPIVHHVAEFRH
- procedure.text: ELISA, coated huIL-17A, then 200 nM XAB1 Fab as competitor
readout.type: Competition ELISA (normalized to XAB1 Fab) (fold)

1. MB464 (Fab, V domains shown, Fab variant of XAB1) VH: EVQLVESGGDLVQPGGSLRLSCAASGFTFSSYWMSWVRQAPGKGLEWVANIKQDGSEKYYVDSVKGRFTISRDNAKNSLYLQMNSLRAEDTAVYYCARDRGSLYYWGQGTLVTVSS VL: AIQLTQSPSSLSASVGDRVTITCRPSQGIIYQLAWYQQKPGKAPKLLIYDASSLENGVPSRFSGSGSGTDFTLTISSLQPEDFATYYCQQFNSYPLTFGGGTKVEIK :: 36.9
2. MB491 (Fab, V domains shown, Fab variant of XAB1) VH: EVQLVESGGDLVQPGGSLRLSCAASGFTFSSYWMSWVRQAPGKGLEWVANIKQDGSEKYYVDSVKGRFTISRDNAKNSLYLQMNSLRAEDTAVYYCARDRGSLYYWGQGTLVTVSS VL: AIQLTQSPSSLSASVGDRVTITCRPSQGIFFWLAWYQQKPGKAPKLLIYDASSLENGVPSRFSGSGSGTDFTLTISSLQPEDFATYYCQQFNSYPLTFGGGTKVEIK :: 44.2
3. MB454 (Fab, V domains shown, Fab variant of XAB1) VH: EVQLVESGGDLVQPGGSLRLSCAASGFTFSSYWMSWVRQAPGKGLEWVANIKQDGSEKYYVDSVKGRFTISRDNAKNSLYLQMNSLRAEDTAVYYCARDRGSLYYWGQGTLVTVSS VL: AIQLTQSPSSLSASVGDRVTITCRPSQGILWALAWYQQKPGKAPKLLIYDASSLENGVPSRFSGSGSGTDFTLTISSLQPEDFATYYCQQFNSYPLTFGGGTKVEIK :: 36.6

Just for reference, patent US20170291939A1 is where these values come from.
